Biological target: USP8^CD (purified catalytic domain of USP8) (Homo sapiens)
Construct: the purified catalytic domain of USP8 (USP8^CD, in-house purified); made in house; host or cells: E. coli BL21 Gold
Sequence (P40818 777-1109 limits assumed): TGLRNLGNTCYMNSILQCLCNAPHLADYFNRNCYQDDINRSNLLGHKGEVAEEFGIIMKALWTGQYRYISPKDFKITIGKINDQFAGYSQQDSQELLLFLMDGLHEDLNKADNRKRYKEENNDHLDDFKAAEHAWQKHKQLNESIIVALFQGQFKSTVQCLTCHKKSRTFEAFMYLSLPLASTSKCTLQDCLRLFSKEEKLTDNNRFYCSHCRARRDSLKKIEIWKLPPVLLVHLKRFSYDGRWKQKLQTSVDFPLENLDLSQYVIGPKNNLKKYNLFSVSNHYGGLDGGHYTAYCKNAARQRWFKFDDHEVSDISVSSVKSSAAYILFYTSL
Assay: Inhibition of purified USP8^CD enzymatic activity (Ub-AMC or Ub-Rho substrate)
Type: biochemical
Conditions: 0.5 μM compound; Table 1d
Kind request: treat 40% as inclusive, so inhibition at 0.5 µM at 40% or higher is yes, anything lower is no.

Solved entries:
O=C1c2ccccc2C(=O)c2nc(CS(=O)(=O)c3ccccc3F)c(CS(=O)(=O)c3ccccc3F)nc21: yes
COc1ccc(S(=O)(=O)Cc2nc3c(nc2CS(=O)(=O)c2ccc(OC)cc2)C(=O)c2ccccc2C3=O)cc1: no
CCS(=O)(=O)Cc1nc2c(nc1CS(=O)(=O)CC)C(=O)c1ccccc1C2=O: yes
COc1ccc(S(=O)(=O)Cc2nc3c(nc2CS(=O)(=O)c2ccc(OC)c(OC)c2)C(=O)c2ccccc2C3=O)cc1OC: yes
CCCCCS(=O)(=O)Cc1nc2c(nc1CS(=O)(=O)CCCCC)C(=O)c1ccccc1C2=O: no
O=C1c2ccccc2C(=O)c2nc(CS(=O)(=O)c3ccc4c(c3)OCCO4)c(CS(=O)(=O)c3ccc4c(c3)OCCO4)nc21: no
O=C1c2ccccc2C(=O)c2nc(CS(=O)(=O)c3ccc(F)c(F)c3F)c(CS(=O)(=O)c3ccc(F)c(F)c3F)nc21: no
O=C1c2ccccc2C(=O)c2nc(CS(=O)(=O)c3cccc(F)c3)c(CS(=O)(=O)c3cccc(F)c3)nc21: yes

-- ask Quick check: does O=C1c2ccccc2C(=O)c2nc(CS(=O)(=O)c3cccc(Cl)c3)c(CS(=O)(=O)c3cccc(Cl)c3)nc21 have inhibition at 0.5 µM greater than or equal to 40%?
-- reply no

-- ask Quick check: does CS(=O)(=O)Cc1nc2c(nc1CS(C)(=O)=O)C(=O)c1ccccc1C2=O have inhibition at 0.5 µM greater than or equal to 40%?
-- reply yes

-- ask Quick check: does CCCS(=O)(=O)Cc1nc2c(nc1CS(=O)(=O)CCC)C(=O)c1ccccc1C2=O have inhibition at 0.5 µM greater than or equal to 40%?
-- reply yes

###

Known inhibition at 50 µM of a selection of compounds
Target: USP2^CD (purified catalytic domain of USP2) (Homo sapiens, UniProt O75604)
Construct: The purified catalytic domain of USP2 (USP2^CD, in-house purified); His; made in house; host or cells: E. coli BL21 Gold
Sequence (O75604 267-599 limits assumed): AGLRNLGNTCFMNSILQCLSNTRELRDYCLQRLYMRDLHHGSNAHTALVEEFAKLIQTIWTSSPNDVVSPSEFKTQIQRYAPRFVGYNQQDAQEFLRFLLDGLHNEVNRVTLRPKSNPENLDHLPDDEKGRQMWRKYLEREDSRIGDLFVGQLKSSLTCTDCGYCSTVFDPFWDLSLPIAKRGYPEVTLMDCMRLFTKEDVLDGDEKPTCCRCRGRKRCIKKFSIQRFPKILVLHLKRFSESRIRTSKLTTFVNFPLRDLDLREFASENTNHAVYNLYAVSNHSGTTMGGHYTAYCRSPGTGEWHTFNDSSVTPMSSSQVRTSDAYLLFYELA
Assay: Inhibition of purified USP2^CD enzymatic activity (Ub-AMC or Ub-Rho substrate)
Type: biochemical
Details: 50 μM compound; Table 1b
Experimental: USP2CD or USP8CD were expressed in E. coli BL21 Gold. Cells were grown in LB Miller to mid-log phase and induced by addition of 0.5 mM IPTG for USP2CD for 5 h at 20° C., while 1 mM IPTG was added for USP8CD for 3 h at 37° C. Then, cells were harvested and frozen at −80° C. For His-tagged USP2CD, cells were resuspended in buffer C (10 mM TRIS pH 8.0, 100 mM NaCl, 10 mM Imidazole) and lysed using a sonicator. […]
// units = %; emit number, no label

Below, each entry is followed by its recorded inhibition at 50 µM result.
CCCS(=O)(=O)Cc1nc2c(nc1CS(=O)(=O)CCC)C(=O)c1ccccc1C2=O [VIN6074]: 101
O=C1c2ccccc2C(=O)c2nc(CS(=O)(=O)c3ccc4c(c3)OCCO4)c(CS(=O)(=O)c3ccc4c(c3)OCCO4)nc21 [OVM19]: 18
O=C1c2ccccc2C(=O)c2nc(CS(=O)(=O)c3ccc(F)c(F)c3F)c(CS(=O)(=O)c3ccc(F)c(F)c3F)nc21 [OVM23]: 97
CCCCCS(=O)(=O)Cc1nc2c(nc1CS(=O)(=O)CCCCC)C(=O)c1ccccc1C2=O [VIN6077]: 76
COc1ccc(S(=O)(=O)Cc2nc3c(nc2CS(=O)(=O)c2ccc(OC)cc2)C(=O)c2ccccc2C3=O)cc1 [PCR7994]: 50

Moving on to another compound below.
-- ask Item under review: O=C1c2ccccc2C(=O)c2nc(CS(=O)(=O)c3cccc(Cl)c3)c(CS(=O)(=O)c3cccc(Cl)c3)nc21 [OVM15] . Reported inhibition at 50 µM?
-- reply 30
